Give IC50 for every item shown.
Target: recombinant SARS-CoV-2 main protease (Mpro) (Severe acute respiratory syndrome coronavirus 2)
Construct: the main protease (Mpro; also called 3CLpro) which has an essential role in processing the polyproteins
Test: biochemical
Details: FRET assay, Mpro 50 nM, substrate 10 μM

Examples with their reported IC50 follow.
O=C1CCC(N2C(=O)c3cccc(OCCCCNC(=O)c4ccc5c(N6C(=O)NC7(CC(c8ccccc8Cl)C7)C6=O)cncc5c4)c3C2=O)C(=O)N1 (centres unmarked) [Compound C10778U] = < 0.1 µM
O=C1CCC(N2C(=O)c3cccc(NCCCCNC(=O)[C@H](NC(=O)[C@@H](c4cccnc4)N(C(=O)c4ccco4)c4ccc(-c5ccccc5)cc4)c4ccccc4)c3C2=O)C(=O)N1 (mixture of isomers) [TS451F1] = < 10 µM
Cc1ncsc1-c1ccc(CNC(=O)[C@@H]2C[C@@H](O)CN2C(=O)[C@@H](NC(=O)C2(F)CC2)C(C)(C)C)c(OCCNC(=O)[C@@H](NC(=O)C(c2cccnc2)N(C(=O)c2ccco2)c2ccc3c(c2)oc2ccccc23)c2ccccc2)c1 (some centres unmarked) [TS347F1] = < 10 µM

Batch lookup, IC50 per entry.
1. O=C1CCC(N2C(=O)c3cccc(NCCOCCOCCNC(=O)C(NC(=O)C(c4cccnc4)N(C(=O)c4ccco4)c4ccc(-c5ccccc5)cc4)c4ccccc4)c3C2=O)C(=O)N1 (single isomer, unassigned) [TS454F1]
2. O=C1CCC(N2C(=O)c3cccc(OCCCCCCNC(=O)c4ccc5cncc(N6C(=O)NC7(CC(c8ccccc8Cl)C7)C6=O)c5c4)c3C2=O)C(=O)N1 (centres unmarked) [Compound C10778L]

*A*
1: < 1 µM; 2: < 0.1 µM

====

Give inhibition at 50 µM for every item shown.
Tested on: SARS-CoV-2 (SARS-CoV2/ZG/297-20) in Vero E6 cells
Test: microbe, parasite or virus in culture
Assay type: cell-based
Conditions: Severe acute respiratory syndrome coronavirus 2, Vero C1008, 72 h, read-out: Antiviral Activity 50 uM

Examples with their reported inhibition at 50 µM follow.
O=C1CCC(N2C(=O)c3cccc(OCCNC(=O)c4ccc5cncc(N6C(=O)NC7(CC(c8ccccc8Cl)C7)C6=O)c5c4)c3C2=O)C(=O)N1 (centres unmarked) [Compound C10778P] = > 75%
O=C1CCC(N2C(=O)c3cccc(OCCCCCCNC(=O)c4ccc5cncc(N6C(=O)NC7(CC(c8ccccc8Cl)C7)C6=O)c5c4)c3C2=O)C(=O)N1 (centres unmarked) [Compound C10778L] = < 25%

Batch lookup, inhibition at 50 µM per entry.
1. O=C1CCC(N2C(=O)c3cccc(NCCCCCCCCNC(=O)[C@@H](NC(=O)C(c4cccnc4)N(C(=O)c4ccco4)c4ccc5c(c4)oc4ccccc45)c4ccccc4)c3C2=O)C(=O)N1 (mixture of isomers)
2. O=C(COc1ccc(C2CCC(=O)NC2=O)cc1)NCCCCCNC(=O)c1ccc2c(N3C(=O)NC4(CC(c5ccccc5Cl)C4)C3=O)cncc2c1 (centres unmarked) [Compound C10778X]
3. O=C1CCC(N2C(=O)c3cccc(OCCNC(=O)c4ccc5c(N6C(=O)NC7(CC(c8ccccc8Cl)C7)C6=O)cncc5c4)c3C2=O)C(=O)N1 (centres unmarked) [Compound C10778V]
4. O=C1CCC(N2C(=O)c3cccc(NCCCCCCNC(=O)[C@@H](NC(=O)C(c4cccnc4)N(C(=O)c4ccco4)c4ccc5c(c4)oc4ccccc45)c4ccccc4)c3C2=O)C(=O)N1 (some centres unmarked)
5. O=C1CCC(N2C(=O)c3ccc(NCCOCCOCCOCCNC(=O)[C@H](NC(=O)[C@@H](c4cccnc4)N(C(=O)c4ccco4)c4ccc(-c5ccccc5)cc4)c4ccccc4)cc3C2=O)C(=O)N1 (single isomer, unassigned)
6. O=C1CCC(N2C(=O)c3cccc(OCCCCCCCCC(=O)Nc4cccn([C@@H](CC5CC5)C(=O)N[C@@H](C[C@@H]5CCNC5=O)C(=O)C(=O)NCc5ccccc5)c4=O)c3C2=O)C(=O)N1 (some centres unmarked)

*A*
1: < 25%; 2: < 0%; 3: < 25%; 4: < 0%; 5: < 50%; 6: < 75%

Just for reference, patent US20260137677A1 is where these values come from.
